TARGET ENTITY: AR (Homo sapiens, UniProt P10275)
Sequence (P10275 whole entry, canonical isoform): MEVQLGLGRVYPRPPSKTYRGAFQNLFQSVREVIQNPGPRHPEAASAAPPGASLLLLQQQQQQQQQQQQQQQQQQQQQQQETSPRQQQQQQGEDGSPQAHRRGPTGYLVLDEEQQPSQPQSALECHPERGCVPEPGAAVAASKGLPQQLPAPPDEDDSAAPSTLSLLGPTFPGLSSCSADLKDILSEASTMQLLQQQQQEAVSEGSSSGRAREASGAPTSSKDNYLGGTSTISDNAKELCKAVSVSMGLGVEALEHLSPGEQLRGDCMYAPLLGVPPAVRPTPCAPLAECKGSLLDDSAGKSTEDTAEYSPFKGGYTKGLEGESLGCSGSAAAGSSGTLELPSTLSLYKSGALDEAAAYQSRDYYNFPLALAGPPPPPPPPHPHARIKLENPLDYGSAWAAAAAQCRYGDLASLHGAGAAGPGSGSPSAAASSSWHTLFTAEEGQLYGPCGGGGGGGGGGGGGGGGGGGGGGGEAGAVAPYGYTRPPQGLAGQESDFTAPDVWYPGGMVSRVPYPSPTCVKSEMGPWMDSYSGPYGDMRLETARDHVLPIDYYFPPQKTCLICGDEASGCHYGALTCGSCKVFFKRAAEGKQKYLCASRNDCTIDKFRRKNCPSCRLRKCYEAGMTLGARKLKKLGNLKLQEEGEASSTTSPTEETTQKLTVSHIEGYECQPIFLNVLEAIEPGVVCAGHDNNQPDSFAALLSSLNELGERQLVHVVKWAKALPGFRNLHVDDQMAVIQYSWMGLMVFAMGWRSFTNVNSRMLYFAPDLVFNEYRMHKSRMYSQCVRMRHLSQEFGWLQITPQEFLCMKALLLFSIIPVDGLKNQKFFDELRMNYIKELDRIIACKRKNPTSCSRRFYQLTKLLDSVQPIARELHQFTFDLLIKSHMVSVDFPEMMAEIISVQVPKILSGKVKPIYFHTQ
ASSAY EXPLANATION: AR inhibition (reporter activity of full-length AR and AR splice variants)
TEST PARAMETERS: read-out: IC50 for AR inhibition
pIC50: −log10 of the molar value. Counter-ions that a name gives are not always drawn.

# MOLECULE, pIC50
measured = [
    ("C=C(CN(C)Cc1ccccc1)C(=O)/C(=C/c1ccc(Cl)cc1)c1ccccc1 [JN018, hydrochloride]", 6.96),
]

====

Test system: c-Jun TAD
ASSAY EXPLANATION: JUN-TAD fused to GAL4 DNA-binding domain reporter assay
Format: cell-based
TEST PARAMETERS: Table 3 grade HIGH/MED/LOW, grades not defined
Where a name gives a salt, the structure may show the parent alone.
PROPERTY NAME: JUN-TAD

# MOLECULE, TARGET ENTITY, PROPERTY NAME, RESULT
data = [
    ("Cc1ccc(/C=C(\\CN(C)Cc2ccccc2)C(=O)c2ccccc2)cc1", "c-Jun TAD", "JUN-TAD", "LOW"),
    ("CN(C/C(=C\\c1ccc(Cl)cc1)C(=O)c1ccc(Cl)cc1)Cc1ccccc1", "c-Jun TAD", "JUN-TAD", "LOW"),
    ("CN(C/C(=C\\c1ccc(Br)cc1)C(=O)c1ccccc1)Cc1ccccc1", "c-Jun TAD", "JUN-TAD", "HIGH"),
    ("CN(C/C(=C\\c1ccc(C(F)(F)F)cc1)C(=O)c1ccccc1)Cc1ccccc1", "c-Jun TAD", "JUN-TAD", "LOW"),
    ("CN(C)C/C(=C\\c1ccc(Cl)cc1)C(=O)c1ccccc1", "c-Jun TAD", "JUN-TAD", "HIGH"),
    ("C=C(CN(C)Cc1ccccc1)C(=O)/C(=C/c1ccc(Cl)cc1)c1ccccc1 [JN018, hydrochloride]", "c-Jun TAD", "JUN-TAD", "LOW"),
    ("C=CC(O)/C(=C\\c1ccc(Cl)cc1)c1ccccc1 (stereo not shown)", "c-Jun TAD", "JUN-TAD", "LOW"),
    ("CN(C/C(=C\\c1cccc(Cl)c1)C(=O)c1ccccc1)Cc1ccccc1", "c-Jun TAD", "JUN-TAD", "LOW"),
    ("CN(C/C(=C\\c1ccc(Cl)cc1)C(=O)c1ccccc1)Cc1ccccc1", "c-Jun TAD", "JUN-TAD", "LOW"),
    ("CNC(=O)c1ccc(N2C(=S)N(c3ccc(C#N)c(C(F)(F)F)c3)C(=O)C2(C)C)cc1F [MDV 3100, enzalutamide, reference compound]", "c-Jun TAD", "JUN-TAD", "LOW"),
]
